// provenance: patent US8658649B2

# measured.target: Syk (Homo sapiens, UniProt P43405)
# Construct: Flag; made in house
# experimental.details: Syk substrate phosphorylation, Streptavidin FlashPlate
# Format: biochemical
# applied.conditions: 7.77 nM Flag-tagged Syk, PGT-Biotin substrate, 33P-ATP
measured.metric: pIC50
Note on pIC50: it is the negative log10 of concentration, concentration in mol/L.

Lookup: Requested read-out: pIC50. Entry: CCc1c(-c2ccc(C(C)(C)O)cc2)[nH]c2nccnc12
Found: 8.77

---

# Test system: Jurkat
# experimental.details: Viability assay of liquid tumor cell lines (MTS)
# Assay type: cell-based
# applied.conditions: Jurkat (T-ALL), MTS assay, N = 4; listed as A003397769
pIC50: −log10 of the molar value.
measured.metric: pIC50

Lookup: pIC50 / Jurkat / CCc1c(-c2ccc(C(C)(C)O)cc2)[nH]c2nccnc12
Found: < 5.00

---

# Test system: Jurkat
# experimental.details: Viability assay of liquid tumor cell lines (MTS)
# Type: cell-based
# applied.conditions: Homo sapiens, Jurkat, Jurkat (T-ALL), MTS assay, N = 4
measured.metric: IC50 (µM)
# unit: µM | format: bare number

Lookup: Look at this molecule and give its reported IC50. CCc1c(-c2ccc(C(C)(C)O)cc2)[nH]c2nccnc12
Found: 6.8
